- System: PfAP2-I AP2 domain 3 (GST-tagged)
- ASSAY_METHOD_TEXT: gcPBM binding intensity (ln(normalized median fluorescence intensity)); higher = stronger DNA binding
The full ranking holds about 25,000 sequences; the median of “ln(normalized median fluorescence intensity)” is about 7.9, and the highest 2% start at about 11. Only a selection was taken, and the highest values are over-represented in it overall.
Classification field: criterion met = gcPBM binding intensity (ln) at or over 8; criterion not met = gcPBM binding intensity (ln) under 8.

SEQ_TEXT	GROUP_LABEL
TCTAATAAAATAAATACATGCATACATACATACATA [TGCATGCA_site895]	criterion not met
AAATCACATAAAACATAATCAAATGAAATATAATCA [CACACA_negctrl_site123]	criterion not met
ATATATATATATATTTGTACATAATATATATATGCA [XGTACX_site1795]	criterion met
GTTATAAACAAAATAAATATATGAATATATAATAAT [XGTACX_negctrl_site96]	criterion not met
TGTTATATAATTTAGCGTACAGGTTATAGGACGGAT [XGTACX_site8823]	criterion met
AATTTAAAGTTTTTTTTTTTTTTTTTTTTTTTTTTG [CACACA_negctrl_site1082]	criterion not met
TTTATATTTATGTAGGTGCATTTGTTTACAACATAT [GTGCAC_site9511]	criterion met
TATGTATAAATATATGCACACATATATATATTTATA [CACACA_site9150]	criterion met
ACAATAAATATGTGGTTGCACTTATAATATATTTAT	criterion met
TTTTTTTTATGTATCACACATAATTTTTTATTATGA [CACACA_site5534]	criterion not met
AAATATTATAGCACCACACACTTATTTTATTTATAT [CACACA_site7133]	criterion met
TTATCGGTATAATATAGTACATATAGATATATAATA [XGTACX_site1440]	criterion not met
ATATAAAATATGAGTAGTACATATTTTCTCATCTTA [XGTACX_site8595]	criterion not met
TTTAATTTTCGGTGTGCACACAACTATGAGTTTTTA [CACACA_site3034]	criterion met
AAATATTATAGCACCACACACTTATTTTATATATAT [CACACA_site5281]	criterion met
ATTTTTATTCAGTTCACACACGCTTTAATATTATAT [CACACA_site3465]	criterion met

----------
- Test system: PfAP2-I AP2 domain 3 (GST-tagged)
- ASSAY_METHOD_TEXT: gcPBM binding intensity (ln(normalized median fluorescence intensity)); higher = stronger DNA binding
Over roughly 25,000 sequences, “ln(normalized median fluorescence intensity)” has its median near 7.9; the highest 2% begin near 11. The sample holds the highest values, similar sequences and a random draw of the others, so the mix is not that of the screen.
VALUE_TYPE: gcPBM binding intensity (ln)

SEQ_TEXT	VALUE_TYPE	EXPERIMENTAL_RESULT
ATAAATTCATATATGAGTACTAAAAATATCTTTTTC [XGTACX_site5541]	gcPBM binding intensity (ln)	7.61
AATAGCTAGCTGTGCACACAAACATATTTTCCAAAT [CACACA_site880]	gcPBM binding intensity (ln)	9.55
TATATATATTTTTGTGTGCACTATAATATGAAAATA	gcPBM binding intensity (ln)	11.4
ATATTGTTATATGTTTGTACATATTTTTTATATTTT [XGTACX_site6834]	gcPBM binding intensity (ln)	7.7
TATTATATAATAAAAATTATTATTATTTGTATAAAT [CACACA_negctrl_site195]	gcPBM binding intensity (ln)	7.21
GTTTATTTATTTTATGTGCACATATAACAAAAAAAA	gcPBM binding intensity (ln)	10.4
GTTATATTTAAAATAGTGCAATAAAAATAATAATAT	gcPBM binding intensity (ln)	11.4
AGAATATAATTTTTATGTACATATATTAAATATATT [XGTACX_site8521]	gcPBM binding intensity (ln)	7.6
ATATATATATATATTGTGCACAAAAAAAAATAAGCA	gcPBM binding intensity (ln)	11.2
TATATATTAAAAATAGTGCAAAATAATATATATATA [GTGCAC_site9716]	gcPBM binding intensity (ln)	10.8
TATGTCCATATTTCCACACACATATTATTTTTATAT [CACACA_site3798]	gcPBM binding intensity (ln)	8.18
ATATTTTATATAATAGTGCAAATAATATTAAATAAT	gcPBM binding intensity (ln)	10.8
TTTATTTTCCAAAGGGTGCACATAGTTAAAACGATA [GTGCAC_site9855]	gcPBM binding intensity (ln)	11.1
TTTATTTTCCAAAGGGTGCACATAGTTGAAACGATA	gcPBM binding intensity (ln)	11.1
TGAAAAATATAAGGTTGTACTTACATCGGGAATAAT [XGTACX_site4701]	gcPBM binding intensity (ln)	8.05

----------
- Tested on: PfAP2-I AP2 domain 3 (GST-tagged)
- ASSAY_METHOD_TEXT: gcPBM binding intensity (ln(normalized median fluorescence intensity)); higher = stronger DNA binding
Over roughly 25,000 sequences, “ln(normalized median fluorescence intensity)” has its median near 7.9; the highest 2% begin near 11. What follows is part of a selection rich in the highest values, with near analogues and random picks from the rest.
gcPBM binding intensity (ln) below 10 gives 0 (no); gcPBM binding intensity (ln) at or above it gives 1 (yes).

SEQ_TEXT	GROUP_LABEL
ATGAAACAGTAACATTGTACTTTTACAAAAAAATAA [XGTACX_site806]	0 (no)
TATATAATAAGAAAATATGTGCGTAGTTCAGCAAAA [XGTACX_negctrl_site304]	0 (no)
ATACATTCAAAATATACACACATATATCTATAATAT [CACACA_site6576]	0 (no)
ATTATATACATATATGCACACAAAAAAATATATATT [CACACA_site8508]	0 (no)
TTATGTTCTTAATGCACACTTATAAGTATCTTATAA [CACACA_site1394]	1 (yes)
ATTTATGGAAAAAGAACACACAATCAAACAAAAATA [CACACA_site3707]	0 (no)
TTTTTTTTTTTTTGTACATGCAAATATTATGAACAC [TGCATGCA_site571]	0 (no)
CACATTAATTTTTGGGTGCACTTGGGAAATTTTGGT	1 (yes)
AATTTTTAGAAGAACACACACATATATATTATGACC [CACACA_site246]	0 (no)
AAAAAAAAAAAATACGTGCACTATGATATATTATAT	1 (yes)

----------
Examples of sequences with documented gcPBM binding intensity (ln) follow.
- System: PfAP2-I AP2 domain 3 (GST-tagged)
- ASSAY_METHOD_TEXT: gcPBM binding intensity (ln(normalized median fluorescence intensity)); higher = stronger DNA binding
In all, about 25,000 sequences were measured (“ln(normalized median fluorescence intensity)”: median about 7.9, highest 2% from about 11 on). The sample as a whole holds a higher share of the highest values than the screen did.

SEQ_TEXT	gcPBM binding intensity (ln)
TCTTTCTCTCTTCAAAGTACATATAATATATACTTC [XGTACX_site7982]	7.88
GAATAAATTAAAAACGCATGTATCATTACTACATAA [TGCATGCA_site111]	7.36
ACAAAACGAACATACGCATGTGTGTACATTAATATA [TGCATGCA_site922]	8.14
ATTATGTACAAAATGGTGCAATATTATACATATATA [GTGCAC_site9468]	11.1
AAAAATATATAACAAAGTACATATATATTTAGTAAT [XGTACX_site8791]	7.43
AATTTTTTTCTCCAAGTGCATTAGAACATTAACGTA [GTGCAC_site9413]	10.9
TAGAACAAATAAAACACACACATATATATATATATG [CACACA_site2768]	8.06

----------
- System: PfAP2-I AP2 domain 3 (GST-tagged)
- ASSAY_METHOD_TEXT: gcPBM binding intensity (ln(normalized median fluorescence intensity)); higher = stronger DNA binding
The full ranking holds about 25,000 sequences; the median of “ln(normalized median fluorescence intensity)” is about 7.9, and the highest 2% start at about 11. The list comes from a sample in which the highest values are over-represented; it also holds close analogues and randomly drawn sequences.

SEQ_TEXT	TARGET_SYSTEM	gcPBM binding intensity (ln)
AAATAAATACATAATACATGCATATTTAATATATAG [TGCATGCA_site135]	PfAP2-I AP2 domain 3 (GST-tagged)	7.93
TATAAGAATGACAAGTGTACATATCAAATATATTAG [XGTACX_site7113]	PfAP2-I AP2 domain 3 (GST-tagged)	7.77
TTTTTTAAAATATAAAATATGTACAAATATGTTGAA [GTGCAC_negctrl_site379]	PfAP2-I AP2 domain 3 (GST-tagged)	7.97
TATATCATATAAAACCGTACATACATACTTAATTGT [XGTACX_site6822]	PfAP2-I AP2 domain 3 (GST-tagged)	7.8
ATATGATCATAAAACACACACACAAAAAAAAAAAAA [CACACA_site1806]	PfAP2-I AP2 domain 3 (GST-tagged)	7.95
TAAATCACAAAATTATGTACTAAGAAGGAGCAACAT [XGTACX_site6742]	PfAP2-I AP2 domain 3 (GST-tagged)	8.05
